Readings of IC50 for the listed compounds
# Tested On: Recombinant Cat D (Homo sapiens (Human), UniProt P07339)
# Sequence (P07339 65-412): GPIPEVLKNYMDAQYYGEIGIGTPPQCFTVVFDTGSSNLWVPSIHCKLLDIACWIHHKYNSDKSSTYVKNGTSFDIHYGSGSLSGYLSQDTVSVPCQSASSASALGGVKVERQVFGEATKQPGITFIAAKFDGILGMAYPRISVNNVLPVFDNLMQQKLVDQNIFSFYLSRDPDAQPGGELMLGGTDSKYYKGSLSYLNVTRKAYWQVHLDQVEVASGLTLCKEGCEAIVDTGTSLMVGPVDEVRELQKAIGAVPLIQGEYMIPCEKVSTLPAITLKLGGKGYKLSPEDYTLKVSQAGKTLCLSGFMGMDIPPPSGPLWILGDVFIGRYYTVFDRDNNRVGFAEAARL
# Assay Details: In vitro enzymatic Cathepsin D (Cat D) FRET assay
# Type: biochemical
# Measurement Parameters: read-out: IC50 IP (μM) CatD
Report as a plain number; the unit µM is understood.

Smiles Structure: COC[C@]12C[C@H]1[C@@](C)(c1cc(NC(=O)c3cnc(OCC4CC4)cn3)cc(F)c1F)N=C(N)S2
Endpoint: IC50
Data Value: 776

Smiles Structure: C#CCOc1cnc2c(Nc3ccc(F)c([C@@]4(CF)N=C(N)S[C@@]5(CC#N)C[C@H]54)c3)nccc2n1
Endpoint: IC50
Data Value: 648

// next entry
### Prompt What value of IC50 has been recorded for this entry: `C[C@]1(c2cc(NC(=O)c3ccc(Cl)cn3)ccc2F)N=C(N)S[C@@]2(C(F)F)C[C@@H]12`
### Response 152

---

# Tested On: human recombinant BACE2 (Homo sapiens (Human))
# Sequence (Q9Y5Z0 63-518): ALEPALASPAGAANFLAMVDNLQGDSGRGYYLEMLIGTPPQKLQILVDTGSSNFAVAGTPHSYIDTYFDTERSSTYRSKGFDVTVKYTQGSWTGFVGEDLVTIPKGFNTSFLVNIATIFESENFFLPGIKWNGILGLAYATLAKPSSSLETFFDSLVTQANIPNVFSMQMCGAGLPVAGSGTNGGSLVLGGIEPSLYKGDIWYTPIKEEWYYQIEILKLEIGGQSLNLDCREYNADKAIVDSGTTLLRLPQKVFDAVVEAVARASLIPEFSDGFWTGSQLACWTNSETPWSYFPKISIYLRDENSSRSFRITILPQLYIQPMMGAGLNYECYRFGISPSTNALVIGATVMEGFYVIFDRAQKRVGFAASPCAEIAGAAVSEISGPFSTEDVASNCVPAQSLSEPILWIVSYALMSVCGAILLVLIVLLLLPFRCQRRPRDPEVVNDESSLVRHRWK
# Assay Details: In vitro enzymatic BACE2 FRET assay
# Type: biochemical
# Measurement Parameters: read-out: IC50 IP (μM) BACE2 enzyme
# Protocol: These recombinant proteins were further purified using Ni-NTA affinity chromatography (Qiagen). […] This assay is effectively started by the addition of FRET substrate (50 nM) and the combination is incubated for one hour. The FRET assay is terminated by addition of Tris buffer, which raises the pH to neutrality, and the fluorescence is determined. […] Proteolytic cleavage of the FRET substrate releases quenching of fluorescence (excitation 488 nm and emission 590 nm).
Checkbox rule: IC50 lower than 0.07 µM = satisfied; IC50 not lower than 0.07 µM = not satisfied.

Solved cases below.
Smiles Structure: C#CCOc1cnc(C(=O)Nc2ccc(F)c([C@@]3(CF)N=C(N)S[C@@]4(c5ocnc5C)C[C@@H]34)c2)cn1
Label Value: satisfied
--
Smiles Structure: C#CCOc1cnc2c(Nc3cc(F)c(F)c([C@@]4(C)N=C(N)S[C@@]5(C#N)C[C@H]54)c3)ncnc2c1
Label Value: satisfied
--
Smiles Structure: C[C@]1(c2cc(NC(=O)c3ccc(Cl)cn3)ccc2F)N=C(N)S[C@@]2(C(=O)NC3CC3)C[C@H]21
Label Value: satisfied
--
Smiles Structure: COC[C@]12C[C@H]1[C@@](C)(c1cc(NC(=O)c3ncc(OCC(F)(F)F)nc3C)ccc1F)N=C(N)S2
Label Value: not satisfied
--
Smiles Structure: C[C@]1(c2cc(Nc3nccc4nc(OCCCF)cnc34)cc(F)c2F)N=C(N)S[C@@]2(C(F)F)C[C@@H]12
Label Value: not satisfied
--
Smiles Structure: C[C@]1(c2cc(Nc3ncnc4cc(C#N)cnc34)cnc2F)N=C(N)S[C@@]2(C(F)F)C[C@@H]12
Label Value: satisfied

API: the following record is the query input.
### Prompt Regarding `C[C@]1(c2cc(Nc3ncnc4cc(OCc5ncco5)cnc34)cnc2F)N=C(N)S[C@@]2(CF)C[C@H]21` , kindly confirm whether its IC50 is beneath 0.07 µM.
### Response not satisfied

---

# Tested On: Recombinant Cat D (Homo sapiens (Human))
# Assay Details: In vitro enzymatic Cathepsin D (Cat D) FRET assay
# Type: biochemical
# Measurement Parameters: read-out: IC50 IP (μM) CatD
Endpoint: IC50

### Prompt What value of IC50 has been recorded for this entry: `NC1=N[C@](CF)(c2cc(Nc3nccc4nc(OCc5cocn5)cnc34)cc(F)c2F)[C@@H]2C[C@@H]2S1`
### Response 432 µM

### Prompt Then this molecule: COC[C@]12C[C@H]1[C@@](C)(c1cc(NC(=O)c3cnc(OC(C)C(F)(F)F)cn3)ccc1F)N=C(N)S2 (mixture of isomers)
### Response > 400 µM

### Prompt Then this molecule: `COC[C@]12C[C@H]1[C@@](C)(c1cc(Nc3nccc4nc(OCc5cocn5)cnc34)cc(F)c1F)N=C(N)S2`
### Response 443 µM

### Prompt Then this molecule: `C#CCOc1cnc(C(=O)Nc2cnc(F)c([C@@]3(C)N=C(N)S[C@@]4(CF)C[C@H]43)c2)c(C)n1`
### Response 336 µM

### Prompt Then this molecule: `[2H]C([2H])([2H])OC[C@]12C[C@H]1[C@@](C)(c1cc(NC(=O)c3cnc(OCC#C)cn3)cnc1F)N=C(N)S2`
### Response 468 µM

### Prompt Then this molecule: `COc1ncc(NC(=O)c2ccc(Cl)cn2)cc1[C@@]1(C)N=C(N)S[C@@]2(CF)C[C@H]21`
### Response > 400 µM

### Prompt Then this molecule: `CN(C)C(=O)[C@]12C[C@H]1[C@@](C)(c1cc(NC(=O)c3cnc(OCC(F)(F)F)cn3)ccc1F)N=C(N)S2`
### Response 1000 µM

### Prompt Then this molecule: `C#CCOc1cnc2c(Nc3ccc(F)c([C@@]4(CF)N=C(N)S[C@@]5(c6cnco6)C[C@@H]45)c3)ncnc2c1`
### Response 792 µM

### Prompt Then this molecule: `C[C@]1(c2cc(NC(=O)c3cnc(OCc4ncco4)cn3)cc(F)c2F)N=C(N)S[C@@]2(CF)C[C@H]21`
### Response 297 µM

### Prompt Then this molecule: `C[C@]1(c2cc(NC(=O)c3ccc(OCC(F)(F)F)cn3)ccc2F)N=C(N)S[C@@]2(C(F)F)C[C@@H]12`
### Response 846 µM
